Attribution: the supplement of paper PMC9170038

Tested on: K4 kissing-loop RNA reporter;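 further: bound reporter read as fluorescence of individual clusters on recovered sequencing chips by microscopy, with normalized cluster intensities fitted with a binding model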
assayName: apparent KD of K4 kissing-loop reporter; higher = weaker reporter binding
recordedConditions: Eterna round: R107; input ligand: arginine 13.2 mM
readout: apparent KD of K4 kissing-loop reporter

{"primarySequence": "ACGCUGGAUGAAUAACAUCUAGCGAAAAUUCGAGGACCGGUACGGCCGCCACUCGAGCUAACUGCGAGUGAUGUUCGAUAAUAAA [Mat - Mod of OpenEnded 3 - D6]", "obsValue": "374 nM"}
{"primarySequence": "AAAGUCGGCUGUGAUACCAGUCAUAUAACAACAUAUCGCAGUGAUGUUGCGAGAUAGGAUGACCCUUGGCAGCACUCAGUACGAU [Same State Theophylline B GF 6]", "obsValue": "360 nM"}
{"primarySequence": "UGAUACCAGACGGCCGCCACUCCUAGUGAUGUUAGGAACCUAAAAUAGCAUGUCAAAGACAUGCGGAGGACCGGGUCUGGUAUCU [TrypBX 23 #SwitchBubble #Palindromic #StaticStem]", "obsValue": "92.1 nM"}
{"primarySequence": "AGUAUAGAGUCGGCCGCCACUGGUUUUAUGUGUGUCAAAUCUGGAUCAAAGUGAUGUUUUGAGACUAGGACCGGGACCAUUGUUA [#06 K4 Tryptophan B Exclusion]", "obsValue": "139 nM"}
{"primarySequence": "UGAUAGGACAGAAGGAGCGGUAGUGAUGUUGCCAAAAGUAUAAGGUGUCAAAAGACACCCUGCCAGGUAGGUCGCUGUCCUAUCU", "obsValue": "228 nM"}
{"primarySequence": "GGAUAGGACGGAGGAUAUGGUAGUGAUGUUACCAAACUGGUUAAACAUGUCAGAAAACUGGCAUGACCAGAAGGUUGUCCUAUCG [FmnBX 27 G10+U75]", "obsValue": "69 nM"}

---

System: MS2 coat protein
assayName: apparent KD of MS2 coat protein; designed switch direction (-1 OFF switch, 1 ON switch): -1; higher = weaker reporter binding
recordedConditions: input ligand: microRNA oligo, concentration not stated
Recorded apparent KD of MS2 coat protein for the following sequences

{"primarySequence": "UAGCAUUGCCUUUGGUAGUGCAUUACAUGAGGAUCACCCAUGUAGGAUAUGGUAGGCUUUGCUUACCAGAAGGACAUGAUAAUU [JL ENG3 1.05] (Eterna round: R96, puzzle: Exclusion NG 3)", "targetEntity": "MS2 coat protein", "measureUnit": "nM", "apparent KD of MS2 coat protein": 38.9}
{"primarySequence": "ACAUGAGGAUCACCCAUGUCCGGCUGGUCUGUCUCGGCUGUCGAGGAUAUAGCACGGUAUCCGCGCUAGAAGGCGGGAGCCGGG [Aenatbe mod 88] (Eterna round: R96, puzzle: Exclusion NG 3)", "targetEntity": "MS2 coat protein", "measureUnit": "nM", "apparent KD of MS2 coat protein": 127}
{"primarySequence": "GGAGGAGAGUUAGGAUAUACAAGAAGAAUGUGAGUAGAAGGAACGGAACAUGAGGAUCACCCAUGUCCCAUGUGGAGGAGGAGG [Kawasakiqro] (Eterna round: R96, puzzle: Exclusion NG 1)", "targetEntity": "MS2 coat protein", "measureUnit": "nM", "apparent KD of MS2 coat protein": 25.3}
{"primarySequence": "GAAAAGGUAGGAUAUACGAAAAAAAAGGGUAGAAAAAAUACACAUGAGGAUCACCCAUGUAGAAGGACCAAAAG [salish99_ex2_r3_073] (Eterna round: R96, puzzle: Exclusion 2)", "targetEntity": "MS2 coat protein", "measureUnit": "nM", "apparent KD of MS2 coat protein": 26.7}
{"primarySequence": "AGCUAGUGCCGAGGAUAUACAUGAGGAUCACCCAUGUAAGGCAGUCGGUUUCUGACUGCCAAUAUGUAGAAGGCGGCGUUGGCA [JL ENG2 1.48] (Eterna round: R96, puzzle: Exclusion NG 2)", "targetEntity": "MS2 coat protein", "measureUnit": "nM", "apparent KD of MS2 coat protein": 15.8}
{"primarySequence": "UGUGUGCUGCGAGGAUAUACAUGAGGAUCACCCAUGUAAAUGUGUGAGGCUUUGCCUCACACAAUGUAGAAGGCGCAGUACACU [Mat - Exclusion NG 2 - Mod of JL - D4] (Eterna round: R96, puzzle: Exclusion NG 2)", "targetEntity": "MS2 coat protein", "measureUnit": "nM", "apparent KD of MS2 coat protein": 9.63}
{"primarySequence": "CCCAACGUAACAGGAUAUGCUGUUGAGGCCGGGCGACCUACAUGAGGAUCACCCAUGUCGAAAUGGCAGAAGGGUUGCCGGGUA [Quatin] (Eterna round: R96, puzzle: Exclusion NG 2)", "targetEntity": "MS2 coat protein", "measureUnit": "nM", "apparent KD of MS2 coat protein": 61.9}
{"primarySequence": "AAAUGGGCGUAGGAUAUGAGAUGGUCUAGCAGCUCAGAAGGACGCACAUGAGGAUCACCCAUGUGAUCGGACUA [Celebidi] (Eterna round: R96, puzzle: Exclusion 6)", "targetEntity": "MS2 coat protein", "measureUnit": "nM", "apparent KD of MS2 coat protein": 27.8}
{"primarySequence": "ACGCACACGCACGCACGCACACAUGAGGAUCACCCAUGUAAUUAGGAUAUAUUGAAGAACAGAGAAUAGAAGGAAUUACUCAUG [Default title] (Eterna round: R96, puzzle: Exclusion NG 3)", "targetEntity": "MS2 coat protein", "measureUnit": "nM", "apparent KD of MS2 coat protein": 88}
{"primarySequence": "CGAUGCUCGAAUCCACAUGAGGAUCACCCAUGUCGAGUUAGCGAGGAUAUCGGUGACACAUAGUACGAGAAGGCGCGAACCUGA [Ex NG3 #25] (Eterna round: R96, puzzle: Exclusion NG 3)", "targetEntity": "MS2 coat protein", "measureUnit": "nM", "apparent KD of MS2 coat protein": 28.3}
{"primarySequence": "GUGUAGCAAGGAUAUACAUGAGGAUCACCCAUGUGAAUAAGAUAGAAUAAGAUAAAGUGUAGAAGGUGCAGUGU [Excluse me!!! 8 - Jieux - Exclusion 3] (Eterna round: R96, puzzle: Exclusion 3)", "targetEntity": "MS2 coat protein", "measureUnit": "nM", "apparent KD of MS2 coat protein": 31.5}
{"primarySequence": "GCGCCAUCGUGAGAUGGCGUAACUACAUGAGGAUCACCCAUGUAGGAUAUCGAUUGCUUUGCAGUCGAGAAGGGCAAGGGAUUU [JL ENG3 3.88] (Eterna round: R96, puzzle: Exclusion NG 3)", "targetEntity": "MS2 coat protein", "measureUnit": "nM", "apparent KD of MS2 coat protein": 14.7}
{"primarySequence": "AGCUGUGGCCGAGGAUAUCUGAUAGUCCCAACCGAAAUAUAAUCGGACAUGAGGAUCACCCAUGUAGAGAAGGCGGUCUCAGCA [Eli eng2 - 070] (Eterna round: R96, puzzle: Exclusion NG 2)", "targetEntity": "MS2 coat protein", "measureUnit": "nM", "apparent KD of MS2 coat protein": 57.9}
{"primarySequence": "ACAUGAGGAUCACCCAUGUCCGGCUGGUCCGUCUCGGCUGUCGAGGAUAUAGCUCGGUAUCCGCGCUAGAAGGCGGGAGCCGGA [Aenatbe mod 84] (Eterna round: R96, puzzle: Exclusion NG 3)", "targetEntity": "MS2 coat protein", "measureUnit": "nM", "apparent KD of MS2 coat protein": 29.1}
{"primarySequence": "CACCGUUACUGAGGAUAUCGUACAUGAGGAUCACCCAUGUAAUAAAUGAGAAUUUCGGAUGUAUGCGAGAAGGCAGGAAUCGGC [Ostracism 36 - Jieux - Exclusion NG 2] (Eterna round: R96, puzzle: Exclusion NG 2)", "targetEntity": "MS2 coat protein", "measureUnit": "nM", "apparent KD of MS2 coat protein": 19.5}
{"primarySequence": "GUUGUUUAUGUAGGAUAUGCGAGGCGAGCCUAAGCAGAAGGACAUGAGGAUCACCCAUGUAUUGCGGUCUGCGUUCAGAUCGCU [salish99_ExNG1_r4_016] (Eterna round: R96, puzzle: Exclusion NG 1)", "targetEntity": "MS2 coat protein", "measureUnit": "nM", "apparent KD of MS2 coat protein": 19.2}
{"primarySequence": "GGGUGACAUGAGGAUCACCCAUGUCAGGAUAUGAUACUAUGUACUUCGGUACAUAGUAUCAGAAGGGACAUCAU [Ex1-3: 14] (Eterna round: R96, puzzle: Exclusion 1)", "targetEntity": "MS2 coat protein", "measureUnit": "nM", "apparent KD of MS2 coat protein": 253}
{"primarySequence": "CACCGUUAAAGAGGAUAUCGUACAUGAGGAUCACCCAUGUAAUAAAUGAGAAUUUCGGAUGUAUGCGAGAAGGCUUAAAUCGGC [Ostracism 47 - Jieux - Exclusion NG 2] (Eterna round: R96, puzzle: Exclusion NG 2)", "targetEntity": "MS2 coat protein", "measureUnit": "nM", "apparent KD of MS2 coat protein": 39.5}
